The entries below pair compounds with IC50 values for human ACC2 (Homo sapiens (Human), UniProt O00763), as found in several publications.
observable: IC50 (µM)

Illustrative cases are given below, each with its answer.
compound: C[C@H](NC(=O)C(C)(F)F)c1ccc(C2CN(c3ccc(OCC4CC4)cc3)C2)cc1
IC50 (µM): 0.53
--
compound: C[C@H](NC(=O)c1cnco1)c1ccc(O[C@@H]2CCN(c3ccc(OCC4CC4)cc3)C2)cc1
IC50 (µM): 0.03
--
compound: CCNC(=O)Cc1ccc(C#Cc2ccc(OCC)cc2)cc1
IC50 (µM): 3.6
--
compound: Cc1[nH]ncc1C(=O)N[C@@H](C)c1ccc(O[C@@H]2CCN(c3ccc(OCC4CC4)cc3)C2)cc1
IC50 (µM): 0.047

[A] CC(C)n1ncc2c1C(=O)CC1(CCN(C(=O)c3ccc4[nH]nc(C#N)c4c3)CC1)C2
[B] CCNC(=O)c1cccc(C#Cc2ccc(CC(C)NC(C)=O)cc2)c1 (centres unmarked)
[C] CCOc1ccc(C#Cc2ccc(C(C)C(=O)Nc3ccnn3C)cc2)cc1 (centres unmarked)
[D] CCCCOc1cc(C#Cc2ccc(CC(C)NC(C)=O)cc2)ccn1 (centres unmarked)
Exercise: Give the ascending ranking of the items by reported IC50. When ranking, write the labels in the order the request describes.
Key: A, D, C, B
